assay.system: Troponin I, cardiac muscle (Homo sapiens) + Troponin T, cardiac muscle (Homo sapiens) + Troponin C, slow skeletal and cardiac muscles (Homo sapiens) (UniProt P19429+P45379+P63316)
assay.details: cardiac RTF calcium sensitivity activators, confirmation, biochemical, IANBD-TnC fluorescence, triplicate (AID 504383);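 note: 0% = DMSO at 0.472 mM calcium and 100% = DMSO at 2.9 mM calcium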
condition.description: IANBD-labeled cardiac RTF, Ca2+ sensitivity fluorescence; at 7.2 µM; hits give high values; scaled from EC20 to saturating calcium; tested at EC20 calcium, 0.472 mM
Screen size: about 2,500 compounds; about 1,200 (48%) were called active. The set was probably picked from earlier hits. This is one part of the list.
# if value of activation reaches 20%, tag 1; if it stays below, tag 0

In [3]: df
Out[3]:
                                   compound  class_label
0  COc1cc(-c2c(-c3ccc4c(c3)OCO4)noc2C)ccc1F            1
1  O=C(c1ccc(COc2ccccc2Br)o1)N1N=C(C(F)F)CC1(O)C(F)F (stereo unspecified)            1
2  CN(C)c1ccc(/C=C/c2cc[n+](C)c3ccccc23)cc1            0
3              CCCCc1ccc(NC(=O)c2cnccn2)cc1            1
4  CC1(C)CC(=O)C(C=Nc2cc(C(=O)c3ccccc3)ccc2N)=C(O)C1            1
5  O=C1N/C(=C\c2ccc(N3CCOCC3)c(F)c2)C(=O)N1Cc1ccccc1            0

Values from PubChem BioAssay AID504383
